Below, each of the molecules is paired with its reported melting point value.

{"MOLECULE": "CCOC(=O)C1=C(N)NC(N)=C(C(=O)OCC)C1c1ccnc2ccccc12", "RESULT": "145 °C"}
{"MOLECULE": "O=C1CC2CSc3sc(Br)cc3C2=NN1c1ccc(Cl)cc1 (centres undefined)", "RESULT": "169 to 170 °C"}
{"MOLECULE": "CCOCc1nc2c(N)nc3cc(Br)ccc3c2n1CC1CCN(C(=O)N2CCOCC2)CC1", "RESULT": "198 to 199 °C"}
{"MOLECULE": "COc1ccc(N2CCCn3c2nc2c(Cl)ccc(C(OCC(F)F)C4CC4)c23)c(C)n1 (centres undefined)", "RESULT": "124 to 126 °C"}
{"MOLECULE": "CCCCCC(CC(=O)Nc1cc(C(N)=O)ccc1C(C)(C)C)c1ccc(C(=O)O)cc1OC (centres undefined)", "RESULT": "204 to 206 °C"}
{"MOLECULE": "CCOC(=O)c1c(Cl)c(-c2ncc(Cl)cc2F)nn1C", "RESULT": "77 to 79 °C"}

Record "COc1cc([N+](=O)[O-])ccc1NC(=O)OCc1ccccc1" , field melting point: 130 to 131 °C

Record COC1=C(C)C(C)(F)C(C(=O)c2ccccc2)C=C1 (centres undefined) , field melting point: 59 to 61 °C

Record O=C(O)C1=Cc2cc(Cl)c(Oc3cccc(Cl)n3)cc2OC1C(F)(F)F (centres undefined) , field melting point: 226 to 227 °C

Record "NC(=O)CCCON1CCNC1=Nc1c(Cl)cccc1Cl" , field melting point: 140 to 141 °C

Record "COC(=O)C=Cc1cccc2[nH]ccc12" , field melting point: 113 to 115 °C

Record "CC(C)(C)OC(=O)N1CCC(=O)N1c1ccc2ccccc2n1" , field melting point: 112 °C

Record CN1CCC(C(O)(c2ccc(F)cc2)c2ccc3ccccc3c2)CC1 (centres undefined) , field melting point: 164 to 169 °C

Record "CCCN(CCC)Cc1csc(-c2ncn3c2[C@@H]2CCCN2C(=O)c2c(Cl)cccc2-3)n1" , field melting point: 213 to 214 °C

====

EXPERIMENTAL_READOUT: melting point (°C)

(a) N#Cc1c(N)nc2ccc(N3CCN(Cc4ccccc4)CC3)cc2c1O
(b) COc1ccc(S(=O)(=O)C2(C(=O)NO)CCN(Cc3ccc(-c4ccccc4)cc3)CC2)cc1
Prompt line: Thinking about recorded melting point values, which is higher, a or b ? // respond with label for picked entry
Response line: a
(a: 291 °C, b: 168 °C)

====

Below, each of the compounds is paired with its reported melting point value.

Before answering, review these 3 worked examples.
{"COMPOUND": "O=C(c1cc(Cl)ccc1Cl)c1ccccc1I", "melting point": "64 to 66 °C"}
{"COMPOUND": "N#CC(C(=O)c1cc(F)c(Cl)cc1Cl)=C(N)C1CC1", "melting point": "95 °C"}
{"COMPOUND": "O=[N+]([O-])c1cnn(CC(O)CCl)n1 (stereo unspecified)", "melting point": "38 to 38.5 °C"}

Record COc1ccc(N2CCN(c3c(C)c(C)c4c(c3C)C(N3CCN(Cc5ccccc5)CC3)C(C)(C)O4)CC2)cc1 (stereo unspecified) , field melting point: 112 to 116 °C

Record "CCCc1ccc(C=Nc2ccc(C#N)cc2)cc1" , field melting point: 64.8 to 65.5 °C

Record "CSc1c(CC(=O)O)ccc2c3ccccc3n(Cc3ccc(Cl)cc3)c12" , field melting point: 176 to 178 °C
